From: ChEMBL document CHEMBL5725746

Data export: Ki values recorded with Vasopressin V1a receptor (Homo sapiens, UniProt P37288).
Sequence (P37288 whole entry): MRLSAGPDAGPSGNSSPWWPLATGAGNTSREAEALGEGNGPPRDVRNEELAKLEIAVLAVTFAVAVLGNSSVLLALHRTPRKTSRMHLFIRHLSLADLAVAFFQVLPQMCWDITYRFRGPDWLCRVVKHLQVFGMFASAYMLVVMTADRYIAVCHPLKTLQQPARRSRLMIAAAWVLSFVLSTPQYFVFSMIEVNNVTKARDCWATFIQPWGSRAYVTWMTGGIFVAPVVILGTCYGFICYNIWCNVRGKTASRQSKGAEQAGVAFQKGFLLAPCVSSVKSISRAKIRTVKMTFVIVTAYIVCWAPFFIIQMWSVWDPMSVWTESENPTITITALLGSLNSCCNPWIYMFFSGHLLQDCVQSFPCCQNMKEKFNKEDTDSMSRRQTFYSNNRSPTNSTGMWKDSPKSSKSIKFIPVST
Give your result in nM as a bare value.

Please tell me: Ki of C/C(=C1/SC(N2CCC3(CC2)OCc2ccccc23)=NC1=O)c1nccs1 , system Vasopressin V1a receptor (Homo sapiens, UniProt P37288)?
1

Attention now turns to another entry.
Please tell me: Ki of C/C(=C1\SC(N2CCC3(CC2)OCc2ccccc23)=NC1=O)c1ccc(Cl)nc1 , system Vasopressin V1a receptor (Homo sapiens, UniProt P37288)?
3.16
